# measurement target: T1, APBA1_2, Q02410
# T1 sequence (Q02410 742-832, limits assumed, looked up): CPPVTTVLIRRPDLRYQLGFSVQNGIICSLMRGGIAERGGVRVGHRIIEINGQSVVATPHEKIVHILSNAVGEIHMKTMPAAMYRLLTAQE
# assay protocol: holdup assay
# Set-up: key: below the threshold = too weak to quantify, mostly under pKd 3.1 to 4
# measurement context: plain residues with an end cap or a label only (N-terminal biotin on a linker: ttds)
experimental endpoint: pKd
Give the figure by itself; no unit, no explanation.

Check out these entries, answers already filled in.
binder	reported
SGGKRKETLV [NET1, Q7Z628]	3.53
PFRSRSPSEV [GPR6, P46095]	3.83
FVETQHQTQV [FAT3, Q8TDW7]	3.9
PSRDRKETSI [RALBP1, Q15311]	3.32

Turning now to a further record.
Provide one value: measured pKd of GRLLGLETNV [ARHGEF26, Q96DR7]
4.23
